Reported Min cell viability, PA-1 (CLDN6 high) values for a set of binders
Molecular target: T1, human Claudin 6 (human, UniProt P56747 1-220)
T1 sequence (looked up): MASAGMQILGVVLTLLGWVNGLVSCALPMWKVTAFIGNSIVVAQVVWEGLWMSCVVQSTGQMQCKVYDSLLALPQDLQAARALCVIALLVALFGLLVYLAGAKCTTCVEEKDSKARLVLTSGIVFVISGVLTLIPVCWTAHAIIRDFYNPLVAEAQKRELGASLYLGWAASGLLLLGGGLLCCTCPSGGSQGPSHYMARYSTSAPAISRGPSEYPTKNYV
Assay: cell-based or functional assay
Could you give me the number in %? Just the number is fine.

Illustrative cases are given below, each with its answer.
{"BINDER": "z5-LM-D01 (antibody, V domains shown, LM-D01 conjugated to the antibody (structure only as a drawing); residues and drug load not stated) VH: QVQLVQSGAEVKKPGASVKVSCKASGYAFTGYTMNWVRQAPGQGLEWIGLSNPYNAGTIYNQKFKGRVTMTVDKSTSTVYMELSSLRSEDTAVYYCARNYYYGSSYAYYYAMDYWGQGTTVTVSS VL: DIVVTQSPSSLSTSVGDRVTITCRSSTGAVTTSNYANWVQEKPGKAFKGLIGGTNNRAPGVPARFSGSLSGDDAALTISSAQPEDFATYFCALWYSNHWVFGGGTKVEIK", "MEASUREMENT KIND": "Min cell viability, PA-1 (CLDN6 high)", "ENDPOINT VALUE": 7.75}
{"BINDER": "z5-LM-D03 (antibody, V domains shown, LM-D03 conjugated to the antibody (structure only as a drawing); residues and drug load not stated) VH: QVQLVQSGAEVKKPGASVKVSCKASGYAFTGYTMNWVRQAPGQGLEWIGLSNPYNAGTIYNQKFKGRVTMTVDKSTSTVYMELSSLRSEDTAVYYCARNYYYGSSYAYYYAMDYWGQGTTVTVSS VL: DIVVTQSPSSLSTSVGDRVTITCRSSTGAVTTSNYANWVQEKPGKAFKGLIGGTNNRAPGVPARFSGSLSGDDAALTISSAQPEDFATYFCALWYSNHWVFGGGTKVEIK", "MEASUREMENT KIND": "Min cell viability, PA-1 (CLDN6 high)", "ENDPOINT VALUE": 12.1}
{"BINDER": "z5-MMAE (antibody, V domains shown, MMAE conjugated to the antibody; residues and drug load not stated) VH: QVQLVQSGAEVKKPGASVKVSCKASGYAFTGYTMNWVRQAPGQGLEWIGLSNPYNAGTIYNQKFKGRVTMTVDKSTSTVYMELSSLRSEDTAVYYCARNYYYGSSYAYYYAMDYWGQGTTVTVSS VL: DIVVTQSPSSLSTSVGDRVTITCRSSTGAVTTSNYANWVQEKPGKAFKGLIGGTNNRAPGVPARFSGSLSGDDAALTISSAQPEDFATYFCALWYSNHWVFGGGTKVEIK", "MEASUREMENT KIND": "Min cell viability, PA-1 (CLDN6 high)", "ENDPOINT VALUE": 4.88}

Pending binder:
For z5-DXD (antibody, V domains shown, DXD conjugated to the antibody; residues and drug load not stated) VH: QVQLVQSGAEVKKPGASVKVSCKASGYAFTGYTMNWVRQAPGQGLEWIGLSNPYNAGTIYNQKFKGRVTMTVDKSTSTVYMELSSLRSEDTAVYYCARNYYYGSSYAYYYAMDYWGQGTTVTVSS VL: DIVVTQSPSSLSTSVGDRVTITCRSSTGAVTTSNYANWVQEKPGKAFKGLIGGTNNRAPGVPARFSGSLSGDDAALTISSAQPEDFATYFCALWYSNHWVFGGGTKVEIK the binder record lists Min cell viability, PA-1 (CLDN6 high) as 14.1
